measurement description: in vitro
protocol conditions: human
measurement label: CC50

// CC50 lookup, compound = O=C(COc1ccc(Cl)cc1)N1CCN(c2ncnc3oc(-c4ccc(F)cc4)nc23)CC1 , result: > 50 µM

# CC50 of NC(=O)Cc1nc(N2CCN(C(=O)COc3ccc(Cl)cc3)CC2)c2cc(-c3ccc(F)cc3)sc2n1 = > 19.1 µM

Consider Nc1nc(N2CCOCC2)c2nc(Cc3ccc(F)cc3)sc2n1 . Its measured CC50 is > 362 µM

response.value for NC(=O)c1nc(N2CCN(C(=O)COc3ccc(Cl)cc3)CC2)c2cc(-c3ccc(F)cc3)sc2n1 (field: CC50) = 150 µM

The reported value for Nc1nc(SCc2ccccc2)c2nc(-c3ccc(F)cc3)sc2n1 in terms of CC50 is > 339 µM

Summary for this compound, CCOc1nc(N)nc2sc(-c3ccc(F)cc3)cc12 : CC50 is 432 µM

Memo: Nc1nc(N2CCN(C(=O)COc3ccc(Cl)cc3Cl)CC2)c2nc(CCc3ccc(F)cc3)sc2n1 , reported CC50: 157 µM

* * *

Tested on: hRV-45
measurement description: Rhinovirus type 45 antiviral assay in Hela Rh cells, MTS readout
Assay type: cell-based, Human rhinovirus
protocol conditions: Human rhinovirus sp., HRV45, HeLa Rh, Hela Rh cells; read-out: hRV-45 EC50
measurement label: EC50

Field EC50 (entry Nc1nc(N2CCN(C(=O)COc3ccc(OC(F)(F)F)cc3)CC2)c2nc(CCc3ccc(F)cc3)sc2n1 [Example 226] ) reads > 50 µg/mL

Sample COc1ccc(CCc2nc3c(N4CCN(C(=O)COc5ccc(Br)cc5)CC4)nc(N)nc3s2)cc1OC [Example 256] ; EC50 observed: > 50 µg/mL

The compound Nc1nc(N2CCN(C(=O)COc3ccc(Cl)cc3)CC2)c2nc(CCCc3ccc(F)cc3)sc2n1 [Example 290] showed EC50 equal to > 50 µg/mL

Looking up Nc1nc(N2CCN(C(=O)COc3ccc(Cl)cc3)CC2)c2nc(CCCCc3ccc(F)cc3)sc2n1 [Example 292] , I see its EC50 listed as > 50 µg/mL

Per the records, this compound ( COc1ccc(OCC(=O)N2CCN(c3nc(N)nc4sc(-c5ccc(C)cc5)nc34)CC2)cc1 [Example 294] ) has EC50 equal to < 0.39 µg/mL
